- Assayed system: Vitamin D3 receptor (Homo sapiens)
- Test summary: qHTS assay to identify small molecule antagonists of the vitamin D receptor (VDR) signaling pathway (AID 743223)
- Study conditions: VDR-UAS-bla HEK293T, beta-lactamase FRET ratio, 16 h; series mostly up to 61 µM
Results filed as inconclusive are left out. Active and inactive are the calls of the source. Calls come from the whole dose curve; as a rule, active = well fitted inhibition curve with a large enough effect in the signal ratio in the repeat runs (not every such curve was filed as active); inconclusive = weak or mixed curves, or effect the other way; inactive = no such curve, though single readings can be large or run the other way; the % refers to the signal ratio.
Metric: outcome

Worked cases, outcome given:
• NC(N)=NC(=O)c1nc(Cl)c(N)nc1N = inactive
• NS(=O)(=O)c1cc(C(=O)O)c(NCc2ccco2)cc1Cl = inactive
• Cn1cc[nH]c1=S = inactive
• O=S(=O)(O)c1ccc2cc(O)ccc2c1 = inactive
• Cc1cc(=O)n(-c2ccccc2)n1C = inactive

Item Cc1ccc(S(=O)(=O)NC(=O)NN2CCCCCC2)cc1 has what recorded outcome? inactive

// next record OC(Cn1cncn1)(Cn1cncn1)c1ccc(F)cc1F inactive

###

- Test summary: qHTS RealTime-Glo MT Cell Viability Assay in HepG2 cells - 8 hour (AID 1224873); note: nearly all actives have a fitted effect of over 55% in size
- Study conditions: RealTime-Glo luminescence; series mostly up to 76.8 µM
Inconclusive results are not listed. Calls of active or inactive are those of the source. The call rests on the fitted dose curve; in most records, active means well fitted cell-killing curve with a large enough effect in the repeat runs; inconclusive means weak or mixed curves; inactive means flat fitted curve, though single readings scatter.
Metric: outcome

* COc1c2occc2cc2ccc(=O)oc12 | inactive
* Cc1ccc(C)c(OCCCC(C)(C)C(=O)O)c1 | inactive
* O=C(c1ccccc1)c1ccccc1 | inactive

###

- Assayed system: Cytochrome P450 2D6 (Homo sapiens)
- Test summary: Cytochrome P450 Family 2 Subfamily D Member 6 (CYP2D6) small molecule antagonists: luciferase reporter qHTS assay (AID 1671196); note: nearly all actives have a fitted effect of over 50% in size
- Study conditions: P450-Glo CYP2D6 enzyme assay, luciferin luminescence, 1 h; series mostly up to 115 µM
Results filed as inconclusive are left out. Calls of active or inactive are those of the source. The call rests on the fitted dose curve; in most records, active means well fitted inhibition curve with a large enough effect in the repeat runs; inconclusive means weak or mixed curves; inactive means no such curve, though single readings can be large or run the other way.
Respond only with the outcome that fits, drawn from active, inactive

• CC(O)CN(CCN(CC(C)O)CC(C)O)CC(C)O (configuration not stated) = active
• Nc1ccc(S(=O)(=O)Nc2nccs2)cc1 = inactive
• O=C(O)CS = inactive
• Cc1cc(=O)[nH]c(=S)[nH]1 = inactive
• CC(C)(Oc1ccc(C2CC2(Cl)Cl)cc1)C(=O)O (configuration not stated) = inactive
• C[C@]12C=CC(=O)C=C1CC[C@@H]1[C@@H]2[C@@H](O)C[C@@]2(C)[C@H]1CC[C@]2(O)C(=O)CO = inactive
• O=C(C1CCCCC1)N1CC(=O)N2CCc3ccccc3C2C1 (configuration not stated) = inactive
• O=C(O)c1cccc([N+](=O)[O-])c1 = inactive
• CCC1(c2ccccc2)C(=O)NCNC1=O = inactive
• Cc1cc(=O)n(-c2ccccc2)n1C = inactive

Hello, I am checking results. What call was entered for NC(=O)c1ccccc1O ? inactive

// next record O=C1NC(=O)c2ccccc21 inactive

// next record Nc1ccc(S(=O)(=O)c2ccc(N)cc2)cc1 inactive

###

- Test summary: qHTS assay to identify small molecule antagonists of the estrogen receptor alpha (ER-alpha) signaling pathway using the BG1 cell line in the presence of 0.1 nM 17-beta-estradiol - cell viability counter screen (AID 1259241); note: nearly all actives have a fitted effect of over 40% in size
- Study conditions: VM7Luc4E2 (BG1) viability, CellTiter-Fluor protease, 22 h, 0.1 nM estradiol agonist added; series mostly up to 92.4 µM
Records with an inconclusive call do not appear. Activity calls are given as the source filed them. Calls follow the shape of the dose curve; as a rule, active = well fitted cell-killing curve with a large enough effect in the repeat runs; inconclusive = weak or mixed curves, or effect the other way; inactive = flat fitted curve, though single readings scatter.
Metric: outcome

Worked cases, outcome given:
• Cn1c(=O)c2[nH]cnc2n(C)c1=O = inactive
• CCCCCCCCCCCCCCCC(=O)O = inactive
• Nc1ccc(O)c(C(=O)O)c1 = inactive
• Cc1noc(NS(=O)(=O)c2ccc(N)cc2)c1C = inactive
• C1N2CN3CN1CN(C2)C3 = inactive
• O=NO = inactive
• OC(Cn1cncn1)(Cn1cncn1)c1ccc(F)cc1F = inactive
• Oc1ccc(/C=C/c2cc(O)cc(O)c2)cc1 = inactive

Item NC(=O)c1cnccn1 has what recorded outcome? inactive
